Reference source: patent US12617777B2

Below, each of the compounds is paired with its reported inhibition at 10 µM value.
Biological target: human GPR84 receptor (Homo sapiens, UniProt Q9NQS5)
Construct: host or cells: HEK293, transient transfection
Sequence (Q9NQS5 whole entry): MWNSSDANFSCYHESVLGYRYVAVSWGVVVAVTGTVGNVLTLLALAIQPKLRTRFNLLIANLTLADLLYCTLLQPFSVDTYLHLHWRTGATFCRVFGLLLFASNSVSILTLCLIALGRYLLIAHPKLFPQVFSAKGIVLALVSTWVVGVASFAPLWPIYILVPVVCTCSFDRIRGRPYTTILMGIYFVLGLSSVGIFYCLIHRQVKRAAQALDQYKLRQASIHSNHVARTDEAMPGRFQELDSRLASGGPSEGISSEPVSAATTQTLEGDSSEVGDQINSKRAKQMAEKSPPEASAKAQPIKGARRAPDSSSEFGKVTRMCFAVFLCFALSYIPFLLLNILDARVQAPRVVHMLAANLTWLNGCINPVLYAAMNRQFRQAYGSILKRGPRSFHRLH
Experiment: Gαi biosensor BRET assay in HEK293 cells (antagonism of ZQ-16)
Assay type: cell-based
Conditions: HEK293, single concentration 10 μM (designated F)

The cases that follow already have their inhibition at 10 µM on record.
Compound | Tested Target | inhibition at 10 µM
Cc1cc(C#CCn2cc(-c3ccccc3)nn2)cnc1-c1cn(CC2CCCCO2)nn1 (stereo not shown) | human GPR84 receptor (Homo sapiens, UniProt Q9NQS5) | > 75%
Cc1cc(N2CCN(c3cccnc3)CC2)ccc1-c1cn(CC2CCCCO2)nn1 (stereo not shown) | human GPR84 receptor (Homo sapiens, UniProt Q9NQS5) | ≤ 25%
Cc1cc(N2CCN(Cc3ccncn3)CC2)ccc1-c1cn(CC2CCCCO2)nn1 (stereo not shown) | human GPR84 receptor (Homo sapiens, UniProt Q9NQS5) | 50 to 75%

Consider the record given below.
Note to self: inhibition at 10 µM recorded for Cc1cc(C#CC2CC2)ccc1-c1cn(CC2CCC(C)(C)CO2)nn1 (stereo not shown) was > 75%

* * *

Molecular target: human GPR84 receptor (Homo sapiens)
Assay: Gαi biosensor BRET assay in HEK293 cells (antagonism of ZQ-16)
Details: HEK293 cells, antagonism of 200 nmol/L ZQ-16
Description: Background—The following assays can be used for determination of GPR84 activation in living HEK293 cells. […] Bioluminescence Resonance Energy Transfer (BRET) Measurement—HEK293 cells were transfected with GPR84-Rluc8 and rGFP-FYVE for the EEs trafficking biosensor or with GPR84, Gαi2-Rluc8, GFP10-Gγ2, and Gβ1 for the Gαi biosensor. […] The BRET signal was calculated as the ratio of light emitted by acceptor (GFP10, rGFP) over the light emitted by donor (Rluc8). […]
pIC50: −log10 of the molar value.
Below, each of the molecules is paired with its reported pIC50 value.

The cases that follow already have their pIC50 on record.
Molecule | Measured Property | Measured
C(#CC1CC1)c1ccc2c(c1)CCc1cnn(CC3CCCCO3)c1-2 (stereo not shown) | pIC50 | 6.00 to 6.52
Cc1cc(N2CC(C)(OCc3ccccn3)C2)c(F)cc1-c1cn(CC2CCCCO2)nn1 (stereo not shown) | pIC50 | 6.00 to 6.52
Cc1cc(N2CCN(Cc3ccccn3)CC2)ccc1-c1cn(C[C@H]2CCC(F)(F)CO2)nn1 (stereo in doubt) | pIC50 | ≥ 6.52
Cc1cc(C#CC(C)O)ccc1-c1cn(CC2CCCCO2)nn1 (stereo not shown) | pIC50 | 5.52 to 6.00
Cc1ccc(C#CC2CC2)cc1Cc1cn(CC2CCCCO2)nn1 (stereo not shown) | pIC50 | < 5.52

Consider the record given below.
Note to self: pIC50 recorded for Cc1cc(C#CCNC(=O)OC(C)(C)C)ccc1-c1cn(CC2CCCCO2)nn1 (stereo not shown) was 5.52 to 6.00

* * *

Target: human GPR84 receptor (Homo sapiens)
Construct: host or cells: HEK293, transient transfection
Assay: Gαi biosensor BRET assay in HEK293 cells (antagonism of ZQ-16)
Assay type: cell-based
Settings: HEK293, single concentration 10 μM (designated F)
Measured Property: inhibition at 10 µM

The cases that follow already have their inhibition at 10 µM on record.
Molecule | inhibition at 10 µM
Cc1cc(N2CC(C)(O)C2)ccc1-c1cn(CC2CCCCO2)nn1 (centres unmarked) [Compound I-524] | ≤ 25%
COC(c1cn(CC2OCC(C)(C)CO2)nn1)c1cc(C#CC2CC2)ccc1C (centres unmarked) [Compound I-592] | 50 to 75%
Cc1ccc(C#CC2CC2)cc1C1(c2cn(CC3CCCCO3)nn2)OCCO1 (centres unmarked) [Compound I-604] | > 75%
Cc1cc(C#CCNC(C)(C)C)ccc1-c1cn(CC2CCCCO2)nn1 (centres unmarked) [Compound I-267] | 25 to 50%

Consider the record given below.
Note to self: inhibition at 10 µM recorded for COCC#Cc1cnc(-c2cn(CC3OCC(C)(C)CO3)cn2)c(OC2CC2)c1 [Compound I-848] was ≤ 25%
